Tested on: HCT-116
Measurement Protocol: Cytotoxicity against human HCT-116 cells assessed as reduction in cell viability incubated for 72 hrs by MTT assay
Type: functional, cell-based
Condition Set: HCT-116, 72 h
Experimental Endpoint: IC50

Data request, read-out IC50, for Cl.NCCO/N=C1/C(=C2/C(=O)Nc3ccc([N+](=O)[O-])cc32)Nc2ccc(O)cc21
302 nM

Data origin: ChEMBL document CHEMBL4665660
